# TEST TARGET: CD81 antigen (Homo sapiens, UniProt P60033)
# Sequence (P60033 whole entry): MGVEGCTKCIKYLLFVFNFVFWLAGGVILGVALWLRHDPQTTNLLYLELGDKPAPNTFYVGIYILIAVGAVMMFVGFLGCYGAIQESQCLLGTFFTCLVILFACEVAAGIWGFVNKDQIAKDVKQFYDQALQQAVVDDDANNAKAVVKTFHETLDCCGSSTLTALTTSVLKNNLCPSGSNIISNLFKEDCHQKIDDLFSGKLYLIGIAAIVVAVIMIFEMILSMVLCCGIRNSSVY
ENDPOINT: pKd
A value of pKd is the negative decimal logarithm of a concentration given in moles per litre.

Exam item: Look up pKd for this compound: CC1(C)CC[C@]2(C(=O)O)[C@H](O)C[C@]3(C)C(=CC[C@@H]4[C@@]5(C)CC[C@H](O)C(C)(C)[C@@H]5CC[C@]43C)[C@@H]2C1 [ECHINOCYSTIC ACID]
Marked response: 7.68

----------
# System: Hepatitis C virus
# METHOD SUMMARY: Antiviral activity against pseudo HCV infected in human 293T cells assessed as inhibition of HCV pseudo particles entry after 72 hrs by luciferase reporter gene assay
# Type: functional, organism-based, Hepacivirus hominis
ENDPOINT: pIC50
A value of pIC50 is the negative decimal logarithm of a concentration given in moles per litre.

Example results:
# GIVEN SMILES, NUMBER
records = [
    ("CC1(C)CC[C@]2(C(=O)NCc3cn(CCCn4cc(CNC(=O)[C@]56CCC(C)(C)C[C@H]5C5=CC[C@@H]7[C@@]8(C)CC[C@H](O)C(C)(C)[C@@H]8CC[C@@]7(C)[C@]5(C)C[C@H]6O)nn4)nn3)[C@H](O)C[C@]3(C)C(=CC[C@@H]4[C@@]5(C)CC[C@H](O)C(C)(C)[C@@H]5CC[C@]43C)[C@@H]2C1", 8.00),
    ("CC1(C)CC[C@]2(C(=O)O)CC[C@]3(C)C(=CC[C@@H]4[C@@]5(C)CC[C@H](O)C(C)(C)[C@@H]5CC[C@]43C)[C@@H]2C1", 5.00),
    ("CC(=O)OC[C@H]1O[C@@H](O[C@H]2[C@H](OC(C)=O)[C@@H](OC(C)=O)[C@H](OC(=O)[C@]34CCC(C)(C)C[C@H]3C3=CC[C@@H]5[C@@]6(C)CC[C@H](O)C(C)(C)[C@@H]6CC[C@@]5(C)[C@]3(C)C[C@H]4O)O[C@@H]2COC(C)=O)[C@H](OC(C)=O)[C@@H](OC(C)=O)[C@H]1OC(C)=O", 6.52),
]

We now examine a further molecule.
Exam item: Look up pIC50 for this molecule: CC1(C)CC[C@]2(C(=O)O)[C@H](O)C[C@]3(C)C(=CC[C@@H]4[C@@]5(C)CC[C@H](O)C(C)(C)[C@@H]5CC[C@]43C)[C@H]2C1
Marked response: 5.85
